conditions: in n-butanol, 303.15 K
metricName: solubility (mole fraction)
Numbers only.

Reported solubility (mole fraction), compound CC(=O)N[C@@H](Cc1ccc(O)cc1)C(=O)O : ____
0.0789

====

settings: in n-propyl acetate, 323.15 K
metricName: solubility (mole fraction)

Fill in: solubility (mole fraction) of CC(=O)N[C@@H](Cc1ccc(O)cc1)C(=O)O is ___
0.00537

====

conditions: in sec-butanol, 293.15 K
metricName: solubility (mole fraction)
Give bare numbers.

// solubility (mole fraction) lookup, key: CC(=O)N[C@@H](Cc1ccc(O)cc1)C(=O)O
0.0967

====

conditions: in ethyl acetate, 303.15 K
metricName: solubility (mole fraction)
Give bare numbers.

Returns the measured solubility (mole fraction) for the input compound. Input: CC(=O)N[C@@H](Cc1ccc(O)cc1)C(=O)O
0.00577

====

conditions: in dimethyl carbonate, 313.15 K
metricName: solubility (mole fraction)
Give bare numbers.

Which solubility (mole fraction) is listed for CC(=O)N[C@@H](Cc1ccc(O)cc1)C(=O)O ?
0.00307

====

conditions: in water, 308.15 K
metricName: solubility (mole fraction)

# lookup: solubility (mole fraction) of CC(=O)N[C@@H](Cc1ccc(O)cc1)C(=O)O
0.0292

====

conditions: in isopropanol, 323.15 K
metricName: solubility (mole fraction)
Numbers only.

Fill in: solubility (mole fraction) of CC(=O)N[C@@H](Cc1ccc(O)cc1)C(=O)O is ___
0.171

====

conditions: in n-propyl acetate, 288.15 K
metricName: solubility (mole fraction)

State the recorded solubility (mole fraction) for this entry: CC(=O)N[C@@H](Cc1ccc(O)cc1)C(=O)O
0.00185
